- Tested on: Yap1 mRNA
- EXPERIMENTAL_DETAILS: Antisense inhibition of human Yap1 in A-431 cells by cEt gapmers, single dose (Example 2, RTS4814)
- Format: cell-based
- MEASUREMENT_PARAMETERS: Table 5; A-431 cells, 5,000 cells per well, free uptake, 2,000 nM modified oligonucleotide, approx. 48 hours; RTS4814; normalized to RIBOGREEN; Yap1 mRNA relative to untreated control cells
Strand notation (5' to 3'): a small letter for the sugar, then the base; units joined by * are phosphorothioate-linked, units joined directly phosphodiester-linked; [ ] holds rarer units or linkages, { } end groups; capitals alone tell only the bases. k = constrained ethyl (cEt); [5mC] = 5-methylcytosine; d = 2'-deoxy (DNA)
Classify by measured YAP1 (% UTC): criterion met if it is equal to or exceeds 60 % UTC, criterion not met if it is smaller.

# SUBSTANCE, CLASS_ASSIGNMENT
rows = [
    ("716506 (antisense kT*k[5mC]*kT*dG*d[5mC]*dA*dG*dT*dG*dG*d[5mC]*d[5mC]*dA*kT*kT*kT) [Compound 716506]", "criterion met"),
    ("716449 (kG*kG*kT*d[5mC]*dA*dT*dT*dT*dG*d[5mC]*d[5mC]*dT*dA*kG*kG*kT; antisense) [Compound 716449]", "criterion not met"),
    ("716434 (kT*kA*kA*dA*dT*dG*d[5mC]*dT*dG*dT*dG*dA*d[5mC]*kA*kT*kG; antisense) [Compound 716434]", "criterion not met"),
    ("716374 (kG*kG*kT*d[5mC]*dA*dG*dT*dG*dT*d[5mC]*d[5mC]*d[5mC]*dA*kG*kG*kA; antisense) [Compound 716374]", "criterion not met"),
    ("716410 (kG*kT*kA*dT*d[5mC]*dA*d[5mC]*d[5mC]*dT*dG*dT*dA*dT*k[5mC]*k[5mC]*kA; antisense) [Compound 716410]", "criterion not met"),
    ("716440 (k[5mC]*kT*k[5mC]*dT*dT*d[5mC]*dA*dA*dA*dT*d[5mC]*dA*dG*k[5mC]*kA*kT; antisense) [Compound 716440]", "criterion not met"),
    ("716413 (kT*k[5mC]*k[5mC]*dA*dA*dG*dG*dT*d[5mC]*d[5mC]*dA*d[5mC]*dA*kT*kT*kT; antisense) [Compound 716413]", "criterion met"),
    ("716530 (antisense kA*k[5mC]*kA*dT*d[5mC]*dA*dA*dG*dG*d[5mC]*dT*dA*dT*kG*kA*kT) [Compound 716530]", "criterion met"),
    ("716368 (kG*kT*k[5mC]*dG*dG*dG*d[5mC]*dA*dG*d[5mC]*dT*dT*d[5mC]*k[5mC]*kG*kG; antisense) [Compound 716368]", "criterion met"),
    ("716518 (antisense k[5mC]*kA*kA*dG*dG*dT*d[5mC]*d[5mC]*d[5mC]*d[5mC]*d[5mC]*dT*dA*kA*kA*kT) [Compound 716518]", "criterion met"),
    ("716461 (kA*kT*kA*dA*dA*d[5mC]*dT*dA*d[5mC]*dT*dA*dG*dT*k[5mC]*kA*kT; antisense) [Compound 716461]", "criterion met"),
]
